Recorded EC50 values for a group of molecules are listed next.
Target: UniProt P08659
Sequence (P08659 whole entry): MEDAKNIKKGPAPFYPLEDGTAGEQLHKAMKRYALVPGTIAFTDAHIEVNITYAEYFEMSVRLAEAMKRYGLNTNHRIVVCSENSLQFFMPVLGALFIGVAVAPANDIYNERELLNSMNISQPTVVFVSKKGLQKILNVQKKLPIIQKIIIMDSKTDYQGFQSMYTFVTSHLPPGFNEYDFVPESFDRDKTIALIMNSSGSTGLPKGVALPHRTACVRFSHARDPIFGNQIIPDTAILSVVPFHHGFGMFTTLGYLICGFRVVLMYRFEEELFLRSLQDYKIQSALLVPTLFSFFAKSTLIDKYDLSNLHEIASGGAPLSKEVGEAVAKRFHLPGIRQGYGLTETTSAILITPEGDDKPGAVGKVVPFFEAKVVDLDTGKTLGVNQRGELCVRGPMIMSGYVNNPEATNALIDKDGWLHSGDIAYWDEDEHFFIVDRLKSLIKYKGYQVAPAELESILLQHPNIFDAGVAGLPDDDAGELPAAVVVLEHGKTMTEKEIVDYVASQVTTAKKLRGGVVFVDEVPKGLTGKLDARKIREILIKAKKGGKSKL
Experiment: firefly luciferase enzyme inhibitors, dose response, biochemical, luminescence (AID 1891)
Active and inactive are the calls of the source. Rule as the data show it: actives have a measured EC50 and inactives only a lower limit.
test.readout: EC50

{"molecule": "O=C(Nc1ccc(-c2nc3cccnc3s2)cc1)C1CCCO1 (stereo unspecified)", "value.measured": "6.36 µM (active)"}
{"molecule": "CCOC(=O)c1ccc(NC(=O)CSc2nc3c(c(=O)n2C)SC(C)C3)cc1 (stereo unspecified)", "value.measured": "> 112 µM (not active)"}
{"molecule": "Nc1nnc(SCc2ccc(Cl)cc2)s1", "value.measured": "> 112 µM (not active)"}
{"molecule": "O=C(Nc1cccc(O)c1)c1noc2c1CCCCC2", "value.measured": "2.87 µM (active)"}
{"molecule": "Cc1nc2sccn2c(=O)c1S(=O)(=O)N1CCN(c2cccc(Cl)c2)CC1", "value.measured": "> 112 µM (not active)"}
{"molecule": "COc1cccc(-c2noc(C3CCCN(C(=O)c4ccccc4OC)C3)n2)c1 (stereo unspecified)", "value.measured": "> 112 µM (not active)"}
{"molecule": "Cc1occc1C(=O)N/N=C/c1ccc(-c2ccccc2)cc1", "value.measured": "0.151 µM (active)"}
{"molecule": "CN(C)S(=O)(=O)c1cccc(NC(=O)CSc2nnnn2-c2ccccc2)c1", "value.measured": "> 112 µM (not active)"}
{"molecule": "COc1ccc(-c2cc3ccc(O)cc3oc2=O)cc1OC", "value.measured": "1.23 µM (active)"}
{"molecule": "O=C(NCCc1csc(-c2cccnc2)n1)c1cccs1", "value.measured": "> 112 µM (not active)"}
{"molecule": "Cc1ccc(NC(=O)CC2SC(=O)N(c3ccccc3)C2=O)cc1 (stereo unspecified)", "value.measured": "> 112 µM (not active)"}

# credit: ChEMBL document CHEMBL1201862
